Test system: 786-O
Method summary: Cytotoxicity assay (Version 2, automated, AC50) with/without neutrophil elastase
Format: cell-based, human
Settings: without (−) neutrophil elastase, Version 2, activity concentration at −50%
Measured quantity: AC50

Worked set:
For record CCCNC(=O)Nc1cccc(S(=O)(=O)Nc2cccc([C@@H](CC(=O)O)NC(=O)Nc3ccc(NC(=O)NCCOCCOCCOCCC(=O)N[C@@H](CC(=O)O)C(=O)N4CCC[C@H]4C(=O)N[C@H](C(=O)N=S(C)(=O)Cc4ccnc(Nc5cc(-c6ccc(F)cc6OC)c(F)cn5)c4)C(C)C)cc3)c2)c1 (relative stereo) [Compound 2] the listed AC50 is 100 to 1000 nM

Looking up CCCNC(=O)Nc1cccc(S(=O)(=O)Nc2cccc([C@@H](CC(=O)O)NC(=O)Nc3ccc(NC(=O)NCCOCCOCCOCCC(=O)N[C@@H](CC(=O)O)C(=O)N4CCC[C@H]4C(=O)N[C@H](C(=O)N=[S@](C)(=O)Cc4cc5nc(c4)O[C@H](C)CCCCOc4cc(F)ccc4-c4cc(ncc4F)N5)C(C)C)cc3)c2)c1 (relative stereo) [Compound 56] , I see its AC50 listed as > 1000 nM

Now look at this one.
CCCNC(=O)Nc1cccc(S(=O)(=O)Nc2cccc([C@H](CC(=O)O)NC(=O)Nc3ccc(NC(=O)NCCOCCOCCOCCC(=O)N[C@@H](CCCCNC(=O)CCOCCOCCOCCNC(=O)Nc4ccc(NC(=O)N[C@H](CC(=O)O)c5cccc(NS(=O)(=O)c6cccc(NC(=O)NCCC)c6)c5)cc4)C(=O)NCCOCCOCCOCCC(=O)N[C@@H](CC(=O)O)C(=O)N4CCC[C@H]4C(=O)N[C@H](C(=O)N=S(C)(=O)Cc4cc5nc(c4)OCCCOc4cc(F)ccc4-c4cc(ncc4F)N5)C(C)C)cc3)c2)c1 (relative stereo) [Compound 32] has a reported AC50 of 100 to 1000 nM

----------
Provide the recorded AC50 for the entries that follow.
Tested on: HT29
Method summary: Cytotoxicity assay (Version 2, automated, AC50) with/without neutrophil elastase
Type: cell-based, human
Settings: HT29, without (−) neutrophil elastase, Version 2, activity concentration at −50%

Recorded AC50, per entry:
Entry CCCNC(=O)Nc1cccc(S(=O)(=O)Nc2cccc([C@@H](CC(=O)O)NC(=O)Nc3ccc(NC(=O)NCCOCCOCCOCCC(=O)N[C@@H](CC(=O)O)C(=O)N4CCC[C@H]4C(=O)N[C@H](C(=O)N=[S@](C)(=O)Cc4cc5nc(c4)O[C@@H](C)CCCCOc4cc(F)ccc4-c4cc(ncc4F)N5)C(C)C)cc3)c2)c1 (relative stereo) [Compound 55] , tested on HT29, has a reported AC50 of > 1000 nM

Reported AC50 (HT29) for entry CCCNC(=O)Nc1cccc(S(=O)(=O)Nc2cccc([C@@H](CC(=O)O)NC(=O)Nc3ccc(NC(=O)NCCN(C)CCN(C)CCN(C)CC(=O)N[C@@H](CC(N)=O)C(=O)N4CCC[C@H]4C(=O)N[C@H](C(=O)N=S(C)(=O)Cc4cc5nc(c4)OCCCOc4cc(F)ccc4-c4cc(ncc4F)N5)C(C)C)cc3)c2)c1 (mixture of isomers) [Compound 22] is 100 to 1000 nM

# lookup: CCCNC(=O)Nc1cccc(S(=O)(=O)Nc2cccc([C@@H](CC(=O)[O-])NC(=O)Nc3ccc(NC(=O)NCCOCCOCCOCCC(=O)N[C@@H](C)C(=O)N(C)[C@@H](C)C(=O)N[C@@H](CC(=O)N=[S@@](C)(=O)Cc4cc5cc(c4)OCCCCOc4cc(F)ccc4-c4nc(ncc4F)N5)C(N)=O)cc3)c2)c1.[Na+] [Compound 8] on HT29, AC50 = > 1000 nM

AC50 value, target or system HT29, for CCCNC(=O)Nc1cccc(S(=O)(=O)Nc2cccc([C@@H](CC(=O)O)NC(=O)Nc3ccc(NC(=O)N(C)CCN(C)CCN(C)CC(=O)N[C@@H](CC(N)=O)C(=O)N4CCC[C@H]4C(=O)N[C@H](C(=O)N=S(C)(=O)Cc4cc5cc(c4)OC(C)CCOc4cc(F)ccc4-c4nc(ncc4F)N5)C(C)C)cc3)c2)c1 (relative stereo) [Compound 6] : ≤ 10 nM

Form field, AC50 with HT29, item CCCNC(=O)Nc1cccc(S(=O)(=O)Nc2cccc([C@H](CC(=O)O)NC(=O)Nc3ccc(NC(=O)NCCN(C)CCN(C)CCN(C)CC(=O)N[C@@H](CC(N)=O)C(=O)N4CCC[C@H]4C(=O)N[C@H](C(=O)N=[S@@](C)(=O)Cc4cc5cc(c4)OCCCCCNc4cc(ccc4F)-c4nc(ncc4F)N5)C(C)C)cc3)c2)c1 (relative stereo) [Compound 16] : > 1000 nM

Kindly note: HT29, CCCNC(=O)Nc1cccc(S(=O)(=O)Nc2cccc([C@@H](CC(=O)O)NC(=O)Nc3ccc(NC(=O)NCCOCCOCCOCCC(=O)NCCCC[C@H](NC(=O)CCOCCOCCOCCNC(=O)Nc4ccc(NC(=O)N[C@H](CC(=O)O)c5cccc(NS(=O)(=O)c6cccc(NC(=O)NCCC)c6)c5)cc4)C(=O)NCCOCCOCCOCCC(=O)N[C@@H](CC(=O)O)C(=O)N4CCC[C@H]4C(=O)N[C@H](C(=O)N=[S@](C)(=O)Cc4cc5cc(c4)O[C@H](C)CCOc4cc(F)ccc4-c4nc(ncc4F)N5)C(C)C)cc3)c2)c1 (relative stereo) [Compound 31] , AC50 value reported: > 1000 nM

Record AC50 per entry; entries follow.
1. CCCNC(=O)Nc1cccc(S(=O)(=O)Nc2cccc([C@H](CC(=O)O)NC(=O)Nc3ccc(NC(=O)NCCN(C)CCN(C)CCN(C)CC(=O)N[C@@H](CC(N)=O)C(=O)N4CCC[C@H]4C(=O)N[C@H](C(=O)N=S(C)(=O)Cc4cc5nc(c4)OCCCOc4cc(F)ccc4-c4cc(ncc4F)N5)C(C)C)cc3)c2)c1 (mixture of isomers) [Compound 23]
2. CCCNC(=O)Nc1cccc(S(=O)(=O)Nc2cccc([C@@H](CC(=O)O)NC(=O)Nc3ccc(NC(=O)N(C)CCN(C)CCN(C)CC(=O)N[C@@H](CC(N)=O)C(=O)N4CCC[C@H]4C(=O)N[C@H](C(=O)N=[S@@](C)(=O)Cc4ccnc(Nc5cc(-c6ccc(F)cc6OC)c(F)cn5)c4)C(C)C)cc3)c2)c1 [Compound 4]
3. CCCNC(=O)Nc1cccc(S(=O)(=O)Nc2cccc([C@@H](CC(=O)O)NC(=O)Nc3ccc(NC(=O)NCCOCCOCCOCCC(=O)N[C@@H](CC(=O)O)C(=O)N4CCC[C@H]4C(=O)N[C@H](C(=O)N=S(C)(=O)Cc4ccnc(Nc5cc(-c6ccc(F)cc6OC)c(F)cn5)c4)C(C)C)cc3)c2)c1 (relative stereo) [Compound 2]

["100 to 1000 nM", "> 1000 nM", "100 to 1000 nM"]
